# credit: the supplement of paper PMC10011410

Tested on: U-2 OS
Test: cell painting activity score (Mahalanobis distance from DMSO wells); higher = stronger morphological phenotype
Settings: 2.5 µM; 24 h
measured attribute: cell painting activity score

In [3]: df
Out[3]:
                                   compound  system  result_number
0  CCC(=O)N1CCN(c2ccc(-n3c(=O)ccc4cnc5ccc(-c6cnc7ccccc7c6)cc5c43)cc2C(F)(F)F)CC1  U-2 OS           12.4
1  C=CCNC1=C2C[C@@H](C)C[C@H](OC)[C@H](O)[C@@H](C)/C=C(\C)[C@H](OC(N)=O)[C@@H](OC)/C=C\C=C(/C)C(=O)NC(=CC1=O)C2=O  U-2 OS           19.1
2  CCN(CC)CCNC(=O)c1c(C)[nH]c(/C=C2\C(=O)Nc3ccc(F)cc32)c1C  U-2 OS           11.3
3  CCN(CC)CCCC(C)Nc1ccnc2cc(Cl)ccc12 (configuration not stated)  U-2 OS            4.8
4  Cn1c(=O)n(-c2ccc(C(C)(C)C#N)cc2)c2c3cc(-c4cnc5ccccc5c4)ccc3ncc21  U-2 OS           12.8
5  COC(=O)[C@@]12OC[C@]34[C@H]([C@@H](O)[C@@H]1O)[C@@]1(C)CC(=O)C(O)=C(C)[C@@H]1C[C@H]3OC(=O)[C@H](OC(=O)CC(C)C)[C@@H]24  U-2 OS           16.9
6  C/C(=C\c1csc(C)n1)[C@@H]1C[C@@H]2O[C@]2(C)CCC[C@H](C)[C@H](O)[C@@H](C)C(=O)C(C)(C)[C@@H](O)CC(=O)O1  U-2 OS           22.7
